From: PubChem BioAssay (NCI)

System: OVCAR-8 ovarian
protocolSummary: NCI-60 one-dose screen, 48 h
condition: 10 µM unless noted
The panel holds about 83,000 compounds, 20% with a hit somewhere; the sample as a whole holds those more often. Active and inactive are the calls of the source. The calls were made as follows: active = growth percent below 10; inactive = the rest.
Result category, one only: y = active, n = inactive

| molecule | discreteLabel |
| --- | --- |
| C=C[C@H]1CCC/C=C/[C@@H]2C[C@H](O)C[C@H]2[C@H](O)/C=C/C(=O)O1 | y |

Ask | Write down the call the test reported for this molecule. Item: "COCc1nc(NS(=O)(=O)c2ccc(N)cc2)nc(C)c1Br"
Reply | n

Ask | Item: "C=C(C)[C@@H]1CC[C@]2(C(=O)NS(=O)(=O)c3ccccc3)CC[C@]3(C)[C@H](CC[C@@H]4[C@@]5(C)CC[C@H](OC(=O)NS(=O)(=O)c6ccccc6)C(C)(C)[C@@H]5CC[C@]43C)[C@@H]12"
Reply | n

Ask | Item: Oc1c(C(Nc2ccccc2Br)c2ccccc2)ccc2cccnc12 (centres undefined)
Reply | n

###

System: SNB-19 CNS
protocolSummary: NCI-60 one-dose screen, 48 h (100 = growth as untreated, 0 = no growth, -100 = all killed)
condition: 10 µM unless noted
Description: Growth inhibition of the SNB-19 human tumor cell line is measured as a screen for anti-cancer activity. Cells are grown in 96 well plates and exposed to the test compound for 48 hours. Compounds are tested at a single concentration, which is 10^-5 M for most compounds. The reported endpoint is percent growth (GI% or GIPRCNT), where numbers from 0 - 100% represent growth inhibition, and numbers from -100% - 0 represent cell death. For example, a value of 40 represents 60% growth inhibition. […]
The panel holds about 83,000 compounds, 20% with a hit somewhere; the sample as a whole holds those more often.
Measured growth of individual entries
Output spec: scalar in %, unitless text.

In the examples that follow, each entry is paired with its recorded growth.
| chemicalString | growth [%] |
| --- | --- |
| Cc1ccc(Nc2cccc3ccccc23)cc1 | 90.3 |
| c1ccc(CCn2cccc2)nc1 | 105 |
| CN(C)c1nc(-c2ccco2)n2nc(-c3ccc(Cl)cc3)cc2n1 | 77.9 |
| CCOC(=O)CCN(CCC(=O)OCC)c1ccccc1 | 104 |

Ask | # input compound: "CSC1=N/C(=C\c2cccc(OCc3ccc(Cl)cc3)c2)C(=O)N1" ; wanted: its growth
Reply | 90.4

Ask | Item: "FC(F)(F)c1cc(-c2nnc3n2N=C(Cl)CS3)cc(C(F)(F)F)c1"
Reply | 107

Ask | Item: "COc1ccc(/C=C/c2nc3ccccc3c(=O)n2-c2ccc(C#Cc3ccc(C(C)(C)C)cc3)cc2C)c(OC)c1"
Reply | 105

Ask | Item: "Cc1ccc(NC(=O)c2cc(NCc3cc(O)ccc3O)ccc2O)cc1"
Reply | 99.8

Ask | Item: "Cc1ccccc1Nc1n[nH]c(Cc2ccccc2)n1"
Reply | 97.6

Ask | Item: "COc1ccccc1CNCCCN1C(=O)c2ccc3c4c(ccc(c24)C1=O)C(=O)N(CCCCNCCCN)C3=O"
Reply | -70.3

Ask | Item: "CN1CCCN(CCNc2nccc(-c3c(-c4cccc(O)c4)nc4sccn34)n2)S1(=O)=O"
Reply | 99.4

###

System: OVCAR-3 ovarian
protocolSummary: NCI-60 one-dose screen, 48 h
condition: 10 µM unless noted
Compounds without any hit were thinned out: in the full panel of roughly 83,000, 20% have a hit. The source made the active and inactive calls. The calls were made as follows: active = growth percent below 10; inactive = the rest.
Result category, one only: yes (active), no (inactive)

Some solved entries appear below for comparison.
| molecule | discreteLabel |
| --- | --- |
| O=C(Nc1ccc([N+](=O)[O-])cc1)c1cc2ccccc2cc1O | no |
| CC(=O)O[C@@H]1CC2C(C)(C)CCCC2(C)C2=C1C(=O)C(C(C)C)=CC2=O (some centres undefined) | yes |
| COC(=O)OC1C(O[C@H]2C[C@H]3[C@@H]4CC=C5C[C@@H](O)CC[C@]5(C)[C@H]4CC[C@]3(C)[C@H]2[C@H](C)C(=O)CCC(C)C)OCC(O)C1OC1OCC(O)C(O)C1OC(=O)c1ccc(OC)cc1 (some centres undefined) | no |
| COc1cc(/C=C/c2cc(/C=C/c3ccc(O)c(OC)c3)n(C(=O)Nc3ccc(F)c(Cl)c3)n2)ccc1O | yes |
| COc1ccc(/C=C(\C#N)c2cc(OC)c(OC)c(OC)c2)cc1 | yes |
| Nc1nc(NC2CC2)cc(-c2cccc(Cl)c2Cl)n1 | no |

Ask | Write down the call the test reported for this molecule. Item: COC(=O)C(Br)(C(=O)OC)C(Br)C(Br)C(Br)c1ccccc1 (centres undefined)
Reply | yes

Ask | Item: "O=c1c2cc(Cl)ccc2oc2ccc(OCCCCCN3CCCCCC3)cc12"
Reply | no

Ask | Item: "COC(=O)[C@H](Cc1cn(C)cn1)NC(=O)[C@H](CC(C)C)NC(=O)Nc1cc(C(F)(F)F)cc(C(F)(F)F)c1"
Reply | yes

###

Measured growth of individual entries
System: UO-31 renal
protocolSummary: NCI-60 one-dose screen, 48 h (100 = growth as untreated, 0 = no growth, -100 = all killed)
condition: 10 µM unless noted
Compounds without any hit were thinned out: in the full panel of roughly 83,000, 20% have a hit.
Output spec: scalar in %, unitless text.

| compound | growth [%] |
| --- | --- |
| COc1cc(NC(=O)CSc2nc3ccc(Cl)cc3c(=O)n2-c2ccccc2)cc(OC)c1OC | 51 |
| CCN(CC)CCCC(C)Nc1ccnc2ccc(Oc3ccccc3)cc12 (stereo not given) | 68.5 |
| CCN1CCN(Cc2ccc(NC(=O)Nc3ccc(-n4ccc5c(NC(=O)c6ccccc6)nccc54)cc3)cc2C(F)(F)F)CC1 | -48.6 |
| COC(=O)CSc1ccc(Cl)cc1 | 93.3 |

Consider now this further compound.
Ask | # input compound: "NS(=O)(=O)c1ccc(CCn2c(SCC(=O)N/N=C/c3ccccc3O)nc3ccccc3c2=O)cc1" ; wanted: its growth
Reply | 70.4

###

System: MDA-MB-231 breast
protocolSummary: NCI-60 one-dose screen, 48 h
condition: 10 µM unless noted
Compounds without any hit were thinned out: in the full panel of roughly 83,000, 20% have a hit. Calls of active or inactive are those of the source. How the source made its calls: active means growth percent below 10; inactive means the rest.
Result category, one only: 1.0 = active, 0.0 = inactive

Some solved entries appear below for comparison.
| compound | discreteLabel |
| --- | --- |
| COc1cccc(NC(=O)OC(C)C)c1 | 0.0 |
| O=C(Nc1ccc(Br)cc1)c1ccc(Cl)c(Cl)c1 | 0.0 |
| COc1cc(/C=C/c2cc(/C=C/c3ccc(O)c(OC)c3)n(C(=O)Nc3ccc(F)c(Cl)c3)n2)ccc1O | 0.0 |
| CCC1=CC2CN(C1)Cc1c([nH]c3ccccc13)[C@@](C(=O)OC)(c1cc3c(cc1OC)N(C)[C@H]1[C@@](O)(C(=O)OC)[C@H](OC(C)=O)[C@]4(CC)C=CCN5CC[C@]31[C@@H]54)C2 (some centres undefined) | 0.0 |
| CC1OC(n2c3ccccc3c3c4c(c5c6ccccc6[nH]c5c32)C(=O)N(CCN2CCOCC2)C4=O)CC(O)C1O (centres undefined) | 0.0 |
| COc1cnc2c(c1)C(=O)c1c-2n(CCCNC(C)C)c(=O)c2cc(Cl)ccc12 | 1.0 |
| CCCCOc1nc2ccccc2cc1/C=C/c1cc(/C=C/c2cc3ccccc3nc2OCCCC)n(-c2ccccc2)n1 | 0.0 |
| COc1ncnc2[nH]cc(CN3CCN(c4ccc(F)cc4)CC3)c12 | 0.0 |

Ask | Write down the call the test reported for this compound. Item: O=C1OCC2=C1C(c1ccccc1)c1cc3c(cc1N2CCO)CCC3 (centres undefined)
Reply | 0.0

Ask | Item: "O=C(/C=C/c1ccccc1Br)c1cccc(OCCCCOc2cccc(C(=O)/C=C/c3ccccc3Br)c2)c1"
Reply | 0.0

Ask | Item: "O=C(N/N=C/c1ccccc1O)c1ccncc1"
Reply | 0.0

Ask | Item: "C=C1C(=O)O[C@H]2[C@H]1CC/C(COC(=O)NCc1c[nH]c3ccc(OC)cc13)=C\CC[C@@]1(C)O[C@@H]21"
Reply | 1.0

###

Tested on: NCI-H322M lung
protocolSummary: NCI-60 one-dose screen, 48 h
condition: 10 µM unless noted
The panel holds about 83,000 compounds, 20% with a hit somewhere; the sample as a whole holds those more often. The source made the active and inactive calls. How the source made its calls: active means growth percent below 10; inactive means the rest.
Result category, one only: label 1 = active, label 0 = inactive

Some solved entries appear below for comparison.
| compound | discreteLabel |
| --- | --- |
| O=C(Nc1ccc(Br)cc1)Nc1cccc(Br)c1 | label 0 |
| O=C(/C=C/c1ccco1)c1ccccc1O | label 0 |
| CC(C)(CCc1ccccn1)C(=O)CCCc1ccccn1 | label 0 |
| CN1C(=O)N(C)C2C1NN=c1s/c(=C\c3ccc(Br)cc3)c(=O)n12 (stereo unspecified) | label 0 |
| CC(=O)C1CCC2C3CC(C)=C4CC(O)CCC4(C)C3CCC12C (stereo unspecified) | label 0 |

Ask | Write down the call the test reported for this compound. Item: "O=[N+]([O-])c1ccc(N/N=C/c2ccccc2O)nc1"
Reply | label 0

Ask | Item: N/C(=N\OC(=O)c1ccccc1)C(C(=O)NOC(=O)c1ccccc1)C1CCCCC1 (stereo unspecified)
Reply | label 0

Ask | Item: "COc1ccc(-c2conc2-n2nc(-c3ccccc3)nc2-c2ccccc2)cc1"
Reply | label 0

Ask | Item: CC1OC(n2c3ccccc3c3c4c(c5c6ccccc6[nH]c5c32)C(=O)N(CCN[C@H]2CCC[C@@H]2N)C4=O)CC(O)C1O (stereo partly specified)
Reply | label 0

Ask | Item: "C=CCOc1ccc2c(C)cc(=O)oc2c1"
Reply | label 0

Ask | Item: CC(=O)O[C@@H]1CC2C(C)(C)CCCC2(C)C2=C1C(=O)C(C(C)C)=CC2=O (stereo partly specified)
Reply | label 1
